Here, each record is paired with measured growth data.
# Tested on: M14 melanoma
# experiment.description: NCI-60 one-dose screen, 48 h (100 = growth as untreated, 0 = no growth, -100 = all killed)
# test.settings: 10 µM unless noted
Compounds without any hit were thinned out: in the full panel of roughly 83,000, 20% have a hit. Activity calls are given as the source filed them. Rule for the calls: active = growth percent below 10; inactive = the rest.

{"compound": "c1cnc2[nH]cc(-c3csc(-c4cn(CCCN5CCCCC5)c5ccccc45)n3)c2c1", "growth": "-77.8% (active)"}
{"compound": "COC(=O)c1cc(=O)nc(N/N=C/c2ccc(C)cc2)s1", "growth": "99.1% (inactive)"}
{"compound": "Cc1ccc(N(CC(=O)Nc2ccc(S(=O)(=O)N3CCC(N4CCCC4)CC3)cc2)S(=O)(=O)c2ccc(Cl)cc2)cc1", "growth": "-68.8% (active)"}
{"compound": "COc1cc(/C=C2\\C(=O)N(CC(O)COc3cc(O)c4c(=O)cc(-c5ccccc5)oc4c3)c3ccccc32)cc(OC)c1O (configuration not stated)", "growth": "88.7% (inactive)"}
{"compound": "COc1ccc(C2NC(=O)Nc3ccccc32)c(OC)c1 (configuration not stated)", "growth": "95.6% (inactive)"}
{"compound": "CC/C=C\\C[C@H]1CC=C2C(=O)C=C[C@@H]2CC=CCCCC(=O)O[C@@H](CCCCC)CC=C2C(=O)C=C[C@@H]2CC=CCCCC(=O)O[C@@H](CCCCC)CC=C2C(=O)C=C[C@@H]2CC=CCCCC(=O)O[C@@H](CCCCC)CC=C2C(=O)C=C[C@@H]2CC=CCCCC(=O)O1", "growth": "-3.08% [7.9 µM] (active)"}
{"compound": "C=C(C)[C@@H]1CC[C@]2(C)[C@H](CC=C3[C@@H]4CC(C)(C)CC[C@]4(C=O)CC[C@]32C)[C@@]1(C)CCCN", "growth": "63.9% (inactive)"}
{"compound": "N#CC1=C(N)Oc2ccc3ccccc3c2C1c1ccccc1 (configuration not stated)", "growth": "13.6% (inactive)"}
{"compound": "CN1CCN(c2nc(-c3cccc4ccccc34)nc3sc4c(c23)CCCCCC4)CC1", "growth": "93.2% (inactive)"}
{"compound": "COC(=O)[C@]12CC[C@@H](C)[C@H](C)[C@@H]1C1=CC[C@@H]3[C@@](C)(CC#N)C4=C(C[C@@]3(C)[C@]1(C)CC2)OC[C@]4(C)C=O", "growth": "-1.53% (active)"}
{"compound": "COc1cnc2c(c1)C(=O)c1c-2n(CCCN2CCN(CCO)CC2)c(=O)c2cc([N+](=O)[O-])ccc12", "growth": "18.2% (inactive)"}
{"compound": "c1cc(N2CCCC2)c2nc(-c3[nH]ncc3Nc3ncnc4[nH]ccc34)[nH]c2c1", "growth": "-77.1% (active)"}
{"compound": "C[C@@H](C(=O)O)c1ccc2c3cc(Cl)ccc3n(Cc3cc(=O)oc4ccc(Cl)cc34)c2c1", "growth": "100% (inactive)"}
{"compound": "Cc1nnc2nc(N)[nH]n2c1=O", "growth": "99.2% (inactive)"}
{"compound": "Cn1c(=O)c2c(nc(Br)n2CC(=O)Nc2ccc(F)cc2)n(C)c1=O", "growth": "99.7% (inactive)"}
{"compound": "COc1cccc(-c2nn(-c3ccccc3)cc2-c2ccnc(NCCNS(=O)(=O)c3ccccc3)c2)c1", "growth": "29.8% (inactive)"}
{"compound": "CC1=CC(=O)N(c2cccc3c(N4C(=O)C=C(C)C4=O)cccc23)C1=O", "growth": "96.2% (inactive)"}
{"compound": "COC(=O)C(N)CSC(c1ccccc1)(c1ccccc1)c1ccccc1 (configuration not stated)", "growth": "-6.93% (active)"}
{"compound": "Cc1cc(N2CCCCC2)nc(N(CCNc2ccnc3cc(Cl)ccc23)Cc2ccco2)n1", "growth": "9.4% (active)"}
{"compound": "N#C/C(=C\\c1ccc(-c2ccc(F)cc2)o1)c1nc(-c2ccco2)cs1", "growth": "102% (inactive)"}
{"compound": "O=C(/C=C/c1cccc(O)c1)c1ccccc1O", "growth": "96.4% (inactive)"}
{"compound": "COc1cccc(-c2nn(-c3ccccc3)cc2-c2ccnc(NCCNS(=O)(=O)c3ccc(Cl)cc3)c2)c1", "growth": "28.6% (inactive)"}

====

// growth lookup, one value per entry
# Test system: SF-539 CNS
# experiment.description: NCI-60 one-dose screen, 48 h (100 = growth as untreated, 0 = no growth, -100 = all killed)
# test.settings: 10 µM unless noted
About 83,000 compounds went through this panel and 20% of them were active in at least one assay; those are over-represented in the sample as a whole.

{"substance.smiles": "Cn1cc(-c2csc(-c3c[nH]c4ccccc34)n2)c2cccnc21", "growth, %": -1.15}
{"substance.smiles": "c1ccc2[nH]c(-c3cc(-c4ccc5c(c4)OCO5)n[nH]3)nc2c1", "growth, %": 52.4}
{"substance.smiles": "O=C(/C(=C(\\C(=O)c1ccccc1)c1ccccc1)c1ccccc1)c1ccccc1", "growth, %": 82.1}
{"substance.smiles": "Cc1ccc(-c2ccc(/C=C(\\C#N)c3nc(-c4ccco4)cs3)o2)cc1", "growth, %": 103}
{"substance.smiles": "CCCCC[C@H]1C/C=C2/C(=O)C(Cl)=C[C@@H]2C/C=C\\CCCC(=O)O1", "growth, %": -76.7}

====

growth for assorted molecules
# Tested on: OVCAR-5 ovarian
# experiment.description: NCI-60 one-dose screen, 48 h (100 = growth as untreated, 0 = no growth, -100 = all killed)
# test.settings: 10 µM unless noted
Compounds without any hit were thinned out: in the full panel of roughly 83,000, 20% have a hit.
quantity.measured: growth (%)

{"molecule": "COc1ccc(-c2nc(Nc3ccc(-c4nc5ccccc5[nH]4)cc3)nc(N3CCOCC3)n2)cc1", "obs.value": 66.3}
{"molecule": "CC1(C)NCCC[C@]2(C)[C@H]3CC[C@@H]4[C@H]5[C@H](C(=O)/C=C/c6ccccn6)CC[C@]5(CO)CC[C@@]4(C)[C@]3(C)CC[C@@H]12", "obs.value": 97.9}
{"molecule": "COc1cc(-c2cc3ncccc3c3[nH]c(=O)c4cccnc4c23)cc(OC)c1OC", "obs.value": 45.4}
{"molecule": "CC(CNc1nc(Nc2ccc(Cl)c(Cl)c2)nc(C(Cl)(Cl)Cl)n1)N(C)C (stereo not given)", "obs.value": 33.7}
{"molecule": "O=c1[nH]c2c3ccncc3cc(-c3cccc(Cl)c3)c2c2cnccc12", "obs.value": 67.9}

====

# System: SW-620 colon
# experiment.description: NCI-60 one-dose screen, 48 h
# test.settings: 10 µM unless noted
# Protocol: Growth inhibition of the SW-620 human tumor cell line is measured as a screen for anti-cancer activity. Cells are grown in 96 well plates and exposed to the test compound for 48 hours. Compounds are tested at a single concentration, which is 10^-5 M for most compounds. The reported endpoint is percent growth (GI% or GIPRCNT), where numbers from 0 - 100% represent growth inhibition, and numbers from -100% - 0 represent cell death. For example, a value of 40 represents 60% growth inhibition. […]
This is part of a sample that, as a whole, favours compounds with a hit. Of some 83,000 tested, about 20% had one in any assay. The source made the active and inactive calls. The calls were made as follows: active = growth percent below 10; inactive = the rest.
Possible outcomes: yes for active, no for inactive

{"compound": "CCC(c1ccc(OC)cc1)C(CC)c1ccc(O)c(CN2CCCCC2)c1 (centres undefined)", "assigned.label": "no"}
{"compound": "COc1cnc2c(c1)C(=O)c1c-2n(CCCNCCN2CCOCC2)c(=O)c2cc([N+](=O)[O-])ccc12", "assigned.label": "yes"}
{"compound": "CCCNc1nc(N(C)O)nc(N(C)O)n1", "assigned.label": "no"}
{"compound": "Brc1cnc2[nH]cc(-c3nnc(-c4ccccc4)o3)c2c1", "assigned.label": "no"}

====

# Test system: NCI-H322M lung
# experiment.description: NCI-60 one-dose screen, 48 h
# test.settings: 10 µM unless noted
This is part of a sample that, as a whole, favours compounds with a hit. Of some 83,000 tested, about 20% had one in any assay. Calls of active or inactive are those of the source. Rule for the calls: active = growth percent below 10; inactive = the rest.
Labels: 1 (yes) (active), 0 (no) (inactive)

{"compound": "CCCNc1nc(N(C)O)nc(N(C)O)n1", "assigned.label": "0 (no)"}
{"compound": "CCc1ccc(-c2ccc(Nc3ccccc3)nn2)cc1S(N)(=O)=O", "assigned.label": "0 (no)"}
{"compound": "O=S(=O)(NCCNc1cc(-c2cn(-c3ccccc3)nc2-c2cccc(O)c2)ccn1)c1ccc(Cl)cc1", "assigned.label": "0 (no)"}
{"compound": "COc1ccc(-c2cc(/C=C/C(=O)c3ccc(OC)c(OC)c3)[nH]n2)cc1", "assigned.label": "0 (no)"}
{"compound": "C=COCCCCCCCCCCCCCCCCCC", "assigned.label": "0 (no)"}
{"compound": "O=C(/C=C/c1ccc2ccccc2c1)Nc1ncc(Cc2ccccc2)s1", "assigned.label": "0 (no)"}
{"compound": "COC(=O)[C@]12CC[C@@H](C)[C@H](C)[C@@H]1C1=CC[C@@H]3[C@@]4(C)C[C@@H](O)[C@H](O)[C@@](C)(CO)C4=CC[C@@]3(C)[C@]1(C)CC2", "assigned.label": "1 (yes)"}
{"compound": "Clc1ccc2[nH]cc(-c3nc(-c4c[nH]c5ncccc45)cs3)c2c1", "assigned.label": "0 (no)"}
{"compound": "Cc1ccnc2c(OCc3ccccc3)cccc12", "assigned.label": "0 (no)"}
{"compound": "C[Si](C)(C)Cc1ccccc1", "assigned.label": "0 (no)"}
{"compound": "O=C(/C=C\\c1ccc2c(c1)OCO2)/C=C/c1ccc2c(c1)OCO2", "assigned.label": "0 (no)"}
{"compound": "COc1ccc2c(c1)c(-c1nc(-c3cn(C)c4ncccc34)cs1)cn2CCN", "assigned.label": "0 (no)"}
{"compound": "C=C(C)[C@@H]1CC[C@]2(CN)CC[C@]3(C)[C@H](CC[C@@H]4[C@@](C)(CCCN)[C@H](C(=C)C)CC[C@]43C)[C@@H]12", "assigned.label": "0 (no)"}
{"compound": "N=c1ccc2nc3c(cc(N)c4ccccc43)oc-2c1", "assigned.label": "1 (yes)"}
{"compound": "Brc1ccc2[nH]cc(-c3nc(-c4c[nH]c5ncccc45)cs3)c2c1", "assigned.label": "0 (no)"}
{"compound": "COc1ccc(-c2cc(-c3cccs3)n(N=O)c(=O)c2C#N)cc1", "assigned.label": "0 (no)"}
{"compound": "COc1ccc(C(=O)c2cc(OC)c(OC)c(OC)c2)cc1/C=C/C(=O)c1cc(OC)c(OC)c(OC)c1", "assigned.label": "0 (no)"}
{"compound": "N#Cc1cnc2cc(OC[C@@H](O)CO)c(NC(=O)C3CCCC3)cc2c1Nc1ccc(OCc2cccc(F)c2)c(Cl)c1", "assigned.label": "0 (no)"}
{"compound": "COc1cc(NC(C)CN(CC(C)C)C(C)C)c2ncccc2c1 (stereo unspecified)", "assigned.label": "0 (no)"}
{"compound": "O=S(=O)(NCCNc1cc(-c2cn(-c3ccccc3)nc2-c2cccc(O)c2)ccn1)c1ccc(Br)cc1", "assigned.label": "0 (no)"}
{"compound": "CC(=O)O[C@@H]1CCN2C(=O)N(C)c3ccccc3[C@@H]2C1", "assigned.label": "0 (no)"}
{"compound": "C/C(=C(/c1ccccc1)c1ccc(N2C(=O)c3cccc4c(NCc5ccccc5)ccc(c34)C2=O)cc1)c1ccccc1", "assigned.label": "0 (no)"}
{"compound": "COc1cccc(-c2nn(-c3ccccc3)cc2-c2ccnc(NCCCNS(=O)(=O)c3cccc(F)c3)c2)c1", "assigned.label": "0 (no)"}
{"compound": "Nc1nc(N)c2nc3c(nc2n1)CCCCCCCCCC3", "assigned.label": "0 (no)"}
{"compound": "COc1cccc(-c2nn(-c3ccccc3)cc2-c2ccnc(NCCCNS(=O)(=O)c3ccccc3)c2)c1", "assigned.label": "0 (no)"}
{"compound": "COc1cnc2c(c1)C(=O)c1c-2n(CCCN2CCN(CCO)CC2)c(=O)c2cc([N+](=O)[O-])ccc12", "assigned.label": "1 (yes)"}
{"compound": "CN1CCN(c2ccc3nc(-c4[nH]ncc4Nc4ncnc5[nH]ccc45)[nH]c3c2)CC1", "assigned.label": "1 (yes)"}
{"compound": "[B-][N+](CC)(CC)c1ccccc1", "assigned.label": "0 (no)"}
{"compound": "COC(=O)[C@]12CC[C@@H](C)[C@H](C)[C@@H]1C1=CC[C@@H]3[C@@]4(C)C(c5ncon5)=C[C@@](C)(CO)C4=CC[C@@]3(C)[C@]1(C)CC2", "assigned.label": "0 (no)"}
{"compound": "Clc1ccc(Cn2cc(-c3nc4ccc(Br)nc4n3Cc3ccc(Cl)cc3)c3cccnc32)cc1", "assigned.label": "0 (no)"}
{"compound": "C=C(C)[C@@H]1CC[C@]2(C(=O)O)CC[C@]3(C)[C@H](CC[C@@H]4[C@@]5(C)C/C(=C/c6ccc(OC)cc6)C(=O)C(C)(C)[C@@H]5CC[C@]43C)[C@@H]12", "assigned.label": "0 (no)"}
